target: T1, recombinant human (rhu) PD1 (extracellular domain only) (human, UniProt Q15116 25-170); test: SPR (Biacore 3000), antibody captured by anti-human IgG, PD1 as analyte
T1 construct: extracellular domain; also called recombinant human PD1
T1 sequence (Q15116 25-170): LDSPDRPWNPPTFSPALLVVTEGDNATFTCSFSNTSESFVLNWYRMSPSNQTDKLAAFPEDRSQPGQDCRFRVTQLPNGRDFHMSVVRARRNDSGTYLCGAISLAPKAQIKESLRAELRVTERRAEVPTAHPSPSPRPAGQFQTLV
measureName: koff
Form entry: enter the amount, then its unit.

Documented koff of anti-hPD1 antibody #7 (antibody, human IgG4, V domains shown, also called Anti-hPD1 #7; Anti-PD1 #7) VH: QVQLVQSGAEVKKPGASVKVSCKASGYTFTNYWIHWVRQAPGQGLEWMGEIDPYDSYTNYNQKFKGRVTMTIDKSTNTVYMELSSLRSEDTAVYYCARPGLTYGGMDFWGQGTLVTVSS VL: DIVMTQSPDSLAVSLGERATINCRSSQSLFISGNQKNYLAWYQQKPGQPPKLLIYGASTRESGVPDRFSGSGSGTDFTLTISSLQAEDVAVYYCQNNHYYPYTFGGGTKVEIK : 3.54e-05 s⁻¹
